Target Desc: Jun bZIP domain WT (human, UniProt P05412 252-315)
Sequence (P05412 252-315): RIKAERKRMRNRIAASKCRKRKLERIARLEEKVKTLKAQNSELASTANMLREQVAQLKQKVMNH
Assay Text: ITC

{"Binder": "TRE duplex (dsDNA) DNA 1: CGCGTGACTCACCCC DNA 2: GGGGTGAGTCACGCG", "Kd [nM]": 250}

Origin of measurements: paper PMC2860604
